- assay_system: FXR (Homo sapiens (Human), UniProt Q96RI1)
- Sequence (Q96RI1 262-486): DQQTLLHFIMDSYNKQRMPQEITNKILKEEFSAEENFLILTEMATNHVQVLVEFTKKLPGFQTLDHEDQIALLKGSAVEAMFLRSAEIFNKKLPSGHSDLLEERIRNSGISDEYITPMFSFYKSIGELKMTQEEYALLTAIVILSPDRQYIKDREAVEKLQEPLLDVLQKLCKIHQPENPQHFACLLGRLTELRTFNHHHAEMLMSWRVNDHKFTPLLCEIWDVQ
- protocol_text: transient human FXR/Gal4-luciferase reporter assay
- Type: cell-based
- setup_conditions: Gal4-hFXR fusion construct, HEK293 reporter cells; response relative to 8 μM GW-4064
pEC50: −log10 of the molar value.

[
  {
    "compound": "Cc1nc2ccc(-c3cccc(N(CC45CCC(c6cc(C7CC7)nn6C)(CC4)CC5)C(=O)C45CC(F)(C4)C5)c3)cc2s1",
    "assay_system": "FXR (Homo sapiens (Human), UniProt Q96RI1)",
    "pEC50": 6.90
  },
  {
    "compound": "CC(C)c1noc(C23CCC(CN(C(=O)C45CC(F)(C4)C5)c4cccc(-c5ccc(NS(=O)(=O)C6CC6)cc5)c4)(CC2)CC3)n1",
    "assay_system": "FXR (Homo sapiens (Human), UniProt Q96RI1)",
    "pEC50": 6.88
  },
  {
    "compound": "COc1cc(-c2cccc(N(CC34CCC(c5nnc(C)s5)(CC3)CC4)C(=O)C3CCC(F)(F)C3)c2)ccn1 (stereo not shown)",
    "assay_system": "FXR (Homo sapiens (Human), UniProt Q96RI1)",
    "pEC50": 6.05
  },
  {
    "compound": "CCOc1ncc(-c2cccc(N(CC34CCC(c5ccc(C(F)(F)F)cn5)(CC3)CC4)C(=O)C34CC(F)(C3)C4)c2)cn1",
    "assay_system": "FXR (Homo sapiens (Human), UniProt Q96RI1)",
    "pEC50": 6.38
  },
  {
    "compound": "CC(C)(C)c1noc(C23CCC(CN(C(=O)C45CC(F)(C4)C5)c4cccc(-c5ncc(OC(F)F)cn5)c4)(CC2)CC3)n1",
    "assay_system": "FXR (Homo sapiens (Human), UniProt Q96RI1)",
    "pEC50": 7.35
  },
  {
    "compound": "CC(C)(O)c1ccc(-c2cc(N(CC34CCC(c5nc(C6CC6)no5)(CC3)CC4)C(=O)OC(C)(C)C(F)(F)F)ncc2F)cc1F",
    "assay_system": "FXR (Homo sapiens (Human), UniProt Q96RI1)",
    "pEC50": 7.31
  },
  {
    "compound": "CCc1cnc(-c2cccc(N(CC34CCC(c5nc(C(C)C)no5)(CC3)CC4)C(=O)C34CC(F)(C3)C4)c2)nc1",
    "assay_system": "FXR (Homo sapiens (Human), UniProt Q96RI1)",
    "pEC50": 7.11
  },
  {
    "compound": "CC(C)c1nc(C23CCC(CN(C(=O)C45CC(F)(C4)C5)c4cccc(-c5ccc(OC(F)F)cc5)c4)(CC2)CC3)no1",
    "assay_system": "FXR (Homo sapiens (Human), UniProt Q96RI1)",
    "pEC50": 7.34
  },
  {
    "compound": "CC(C)(C)c1nc(C23CCC(CN(C(=O)C45CC(F)(C4)C5)c4cc(-c5ncc(OC(F)F)cn5)ccn4)(CC2)CC3)no1",
    "assay_system": "FXR (Homo sapiens (Human), UniProt Q96RI1)",
    "pEC50": 7.74
  },
  {
    "compound": "CC(C)(O)c1ccc(-c2ccnc(N(CC34CCC(c5ccc(C(C)(F)F)cn5)(CC3)CC4)C(=O)OC(C)(C)C(F)(F)F)c2)cc1",
    "assay_system": "FXR (Homo sapiens (Human), UniProt Q96RI1)",
    "pEC50": 7.28
  },
  {
    "compound": "CC(C)(C#N)Oc1ccc(-c2ccnc(N(CC34CCC(c5nc(C6CC6)no5)(CC3)CC4)C(=O)OC(C)(C)C(F)(F)F)c2)cc1",
    "assay_system": "FXR (Homo sapiens (Human), UniProt Q96RI1)",
    "pEC50": 7.47
  },
  {
    "compound": "CC(C)(F)c1nc(C23CCC(CN(C(=O)OC(C)(C)C(F)(F)F)c4cc(-c5cnn(CC6COC6)c5)c(F)cn4)(CC2)CC3)no1",
    "assay_system": "FXR (Homo sapiens (Human), UniProt Q96RI1)",
    "pEC50": 7.08
  },
  {
    "compound": "O=C(N(CC12CCC(c3nc(C4CC4)no3)(CC1)CC2)c1cccc(-c2nc(C(F)(F)F)ccc2F)c1)C12CC(F)(C1)C2",
    "assay_system": "FXR (Homo sapiens (Human), UniProt Q96RI1)",
    "pEC50": 6.17
  }
]

Recorded values, source patent US11254663B2.
